What pIC50 was measured for each of the following?
pIC50: −log10 of the molar value. Structures can show the parent of a compound that is named as a salt.

Entry O=C(O)c1cccc(C#Cc2cccc(O)c2)c1-c1ccccc1Oc1ccccc1 [Entry 275] under His-EBNA1 (DNA binding domain of EBNA1, amino acids 459-607) (Epstein-Barr virus) had pIC50 of 4.00 to 5.00

Entry Cn1ncc2ccc(-c3c(C#Cc4cscn4)cccc3C(=O)O)cc21 [Entry 170] under His-EBNA1 (DNA binding domain of EBNA1, amino acids 459-607) (Epstein-Barr virus) had pIC50 of 5.00 to 6.00

Entry Nc1cc(C#Cc2cccc(C(=O)O)c2-c2ccc3cc[nH]c3c2)ccn1 [Entry 240] under His-EBNA1 (DNA binding domain of EBNA1, amino acids 459-607) (Epstein-Barr virus) had pIC50 of 5.00 to 6.00

Entry O=C(O)c1cccc(C#Cc2cccc(C(=O)N3CCOCC3)c2)c1 [Entry 286] under His-EBNA1 (DNA binding domain of EBNA1, amino acids 459-607) (Epstein-Barr virus) had pIC50 of 4.00 to 5.00

Entry Nc1ccc2c(c1)ncn2CC#Cc1cccc(C(=O)O)c1-c1ccccc1 [Entry 258, trifluoroacetate salt] under His-EBNA1 (DNA binding domain of EBNA1, amino acids 459-607) (Epstein-Barr virus) had pIC50 of 5.00 to 6.00

Entry O=C(O)c1cccc(C#Cc2cccc(O)c2)c1-c1c[nH]c2ccccc12 [Entry 276] under His-EBNA1 (DNA binding domain of EBNA1, amino acids 459-607) (Epstein-Barr virus) had pIC50 of 4.00 to 5.00

Entry CCOC(=O)c1cc2ccc(-c3c(C#Cc4ccccc4)cccc3C(=O)O)cc2[nH]1 [Entry 251] under His-EBNA1 (DNA binding domain of EBNA1, amino acids 459-607) (Epstein-Barr virus) had pIC50 of 5.00 to 6.00

Entry O=C(O)c1cccc(C#Cc2cnc3[nH]ccc3c2)c1-n1cccc1 [Entry 14] under His-EBNA1 (DNA binding domain of EBNA1, amino acids 459-607) (Epstein-Barr virus) had pIC50 of 5.00 to 6.00

Entry O=C(Nc1ccc(C#Cc2cccc(C(=O)O)c2-c2ccc3cc[nH]c3c2)cc1)c1cccnc1 [Entry 214] under His-EBNA1 (DNA binding domain of EBNA1, amino acids 459-607) (Epstein-Barr virus) had pIC50 of > 6.00

Entry Nc1cccc(C#Cc2cccc(C(=O)O)c2-c2ccc3cc[nH]c3c2)c1 [Entry 233] under His-EBNA1 (DNA binding domain of EBNA1, amino acids 459-607) (Epstein-Barr virus) had pIC50 of > 6.00

Entry Cn1ccc2cc(C#Cc3cccc(C(=O)O)c3-n3cccc3)ccc21 [Entry 16] under His-EBNA1 (DNA binding domain of EBNA1, amino acids 459-607) (Epstein-Barr virus) had pIC50 of > 6.00

Entry CN(C)Cc1ccc(-c2c(C#Cc3ccccc3)cccc2C(=O)O)cc1 [Entry 95, trifluoroacetic acid salt] under His-EBNA1 (DNA binding domain of EBNA1, amino acids 459-607) (Epstein-Barr virus) had pIC50 of 5.00 to 6.00

Entry CN(C)S(=O)(=O)NC(=O)c1cccc(C#Cc2ccc(F)cc2)c1-n1cccc1 [Entry 114] under His-EBNA1 (DNA binding domain of EBNA1, amino acids 459-607) (Epstein-Barr virus) had pIC50 of 5.00 to 6.00

Entry CC(=O)NS(=O)(=O)c1cccc(C#Cc2ccccc2)c1-n1cccc1 [Entry 153] under His-EBNA1 (DNA binding domain of EBNA1, amino acids 459-607) (Epstein-Barr virus) had pIC50 of 4.00 to 5.00

Entry O=C(O)c1cccc(C#Cc2ccc3[nH]cnc3c2)c1-n1cccc1 [Entry 41] under His-EBNA1 (DNA binding domain of EBNA1, amino acids 459-607) (Epstein-Barr virus) had pIC50 of 5.00 to 6.00

Entry O=C(O)c1cccc(C#Cc2cn3ccnc3cn2)c1-n1cccc1 [Entry 56] under His-EBNA1 (DNA binding domain of EBNA1, amino acids 459-607) (Epstein-Barr virus) had pIC50 of > 6.00

Entry O=C(O)c1cccc(C#Cc2ccncc2)c1-n1cnc2ccccc21 [Entry 300] under His-EBNA1 (DNA binding domain of EBNA1, amino acids 459-607) (Epstein-Barr virus) had pIC50 of 4.00 to 5.00

Entry O=C(O)c1cccc(C#Cc2ccccc2)c1-c1cn[nH]c1 [Entry 99] under His-EBNA1 (DNA binding domain of EBNA1, amino acids 459-607) (Epstein-Barr virus) had pIC50 of 5.00 to 6.00

Entry CCCCC(CC)C(O)C#Cc1cccc(C(=O)O)c1-n1cccc1 (stereo not shown) [Entry 55] under His-EBNA1 (DNA binding domain of EBNA1, amino acids 459-607) (Epstein-Barr virus) had pIC50 of > 6.00

Entry O=C(O)c1cccc(C#Cc2cccc(O)c2)c1-c1cnc2ccccc2c1 [Entry 140] under His-EBNA1 (DNA binding domain of EBNA1, amino acids 459-607) (Epstein-Barr virus) had pIC50 of 5.00 to 6.00

Entry O=C(O)c1cccc(C#Cc2ccccc2)c1-c1cccc2cccnc12 [Entry 205] under His-EBNA1 (DNA binding domain of EBNA1, amino acids 459-607) (Epstein-Barr virus) had pIC50 of 4.00 to 5.00

Entry O=C(O)c1cccc(C#Cc2cccc(CO)c2)c1-c1ccc2cc[nH]c2c1 [Entry 249] under His-EBNA1 (DNA binding domain of EBNA1, amino acids 459-607) (Epstein-Barr virus) had pIC50 of 5.00 to 6.00

Entry Cn1ccc2cc(-c3c(C#Cc4cccc(O)c4)cccc3C(=O)O)ccc21 [Entry 263] under His-EBNA1 (DNA binding domain of EBNA1, amino acids 459-607) (Epstein-Barr virus) had pIC50 of 5.00 to 6.00

Entry O=C(O)c1cc2cc(-c3c(C#Cc4cccc(O)c4)cccc3C(=O)O)ccc2[nH]1 [Entry 254] under His-EBNA1 (DNA binding domain of EBNA1, amino acids 459-607) (Epstein-Barr virus) had pIC50 of 4.00 to 5.00

Entry O=C(O)c1cccc(C#Cc2cccc(O)c2)c1-c1cncnc1 [Entry 243] under His-EBNA1 (DNA binding domain of EBNA1, amino acids 459-607) (Epstein-Barr virus) had pIC50 of 4.00 to 5.00

Entry O=C(O)c1cccc(C#Cc2ccccc2)c1N1CC[C@H](O)C1 [Entry 105] under His-EBNA1 (DNA binding domain of EBNA1, amino acids 459-607) (Epstein-Barr virus) had pIC50 of 3.00 to 4.00

Entry O=C(O)c1cccc(C#Cc2ccc3cc[nH]c3n2)c1-n1cccc1 [Entry 30] under His-EBNA1 (DNA binding domain of EBNA1, amino acids 459-607) (Epstein-Barr virus) had pIC50 of 5.00 to 6.00

Entry O=C(O)c1cccc(C#Cc2ccc3nccn3c2)c1-n1cccc1 [Entry 6] under His-EBNA1 (DNA binding domain of EBNA1, amino acids 459-607) (Epstein-Barr virus) had pIC50 of 4.00 to 5.00

Entry O=C(O)c1cccc(C#Cc2c[nH]c3ccccc23)c1-n1cccc1 [Entry 2] under His-EBNA1 (DNA binding domain of EBNA1, amino acids 459-607) (Epstein-Barr virus) had pIC50 of > 6.00

Entry COc1cccc(C#Cc2cccc(C(=O)O)c2-n2c(C)ccc2C)c1 [Entry 200] under His-EBNA1 (DNA binding domain of EBNA1, amino acids 459-607) (Epstein-Barr virus) had pIC50 of 5.00 to 6.00

Entry O=C(O)c1cccc(C#CCNCc2ccccc2)c1-c1ccccc1 [Entry 157] under His-EBNA1 (DNA binding domain of EBNA1, amino acids 459-607) (Epstein-Barr virus) had pIC50 of 4.00 to 5.00

Entry O=C(O)c1cccc(C#Cc2cc(F)cc(F)c2)c1-n1cccc1 [Entry 45] under His-EBNA1 (DNA binding domain of EBNA1, amino acids 459-607) (Epstein-Barr virus) had pIC50 of 5.00 to 6.00

Entry COc1cc(OC)cc(-c2c(C#Cc3cccc(O)c3)cccc2C(=O)O)c1 [Entry 277] under His-EBNA1 (DNA binding domain of EBNA1, amino acids 459-607) (Epstein-Barr virus) had pIC50 of 4.00 to 5.00

Entry NC(=O)c1cccc(C#Cc2cccc(C(=O)O)c2)c1 [Entry 180] under His-EBNA1 (DNA binding domain of EBNA1, amino acids 459-607) (Epstein-Barr virus) had pIC50 of > 6.00

Entry COc1cccc(C#Cc2cccc(C(=O)O)c2-n2cccc2)c1 [Entry 70] under His-EBNA1 (DNA binding domain of EBNA1, amino acids 459-607) (Epstein-Barr virus) had pIC50 of 5.00 to 6.00

Entry O=C(O)c1cc(Cl)cc(C#Cc2ccccc2)c1-n1cccc1 [Entry 59] under His-EBNA1 (DNA binding domain of EBNA1, amino acids 459-607) (Epstein-Barr virus) had pIC50 of 4.00 to 5.00

Entry CC(C)(N)C#Cc1cccc(C(=O)O)c1-c1ccc2cc[nH]c2c1 [Entry 246] under His-EBNA1 (DNA binding domain of EBNA1, amino acids 459-607) (Epstein-Barr virus) had pIC50 of 5.00 to 6.00
